Recorded protein stability index for the following variants
B1: PPFIA4 (parent)
chain: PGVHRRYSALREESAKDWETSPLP

variants of: B1; experiment: protein stability index of a GFP-peptide fusion (GPS, HEK-293T) (PSI 1-6); higher = more stable; conditions: c terminus: a fixed tail appended;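 note: lentivirally expressed fusions sorted by FACS into six bins by GFP to DsRed ratio, PSI derived from sequencing read proportions per bin multiplied by bin number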

# construct sequence, protein stability index
rows = [
    ("PGDHRRYSALREESAKDWETSPLP [V3D]", 4.89),
    ("PGVHRRYSNLREESAKDWETSPLP [A9N]", 4.4),
    ("PGVHRRYSALREESAPDWETSPLP [K16P]", 3.89),
    ("PGVHRRYSALREESAKDWETSPVP [L23V]", 2.13),
    ("PGMHRRYSALREESAKDWETSPLP [V3M]", 5.03),
    ("PGVIRRYSALREESAKDWETSPLP [H4I]", 4.14),
    ("PGVHRRYSALREHSAKDWETSPLP [E13H]", 2.63),
    ("PGVHRRYSALREEIAKDWETSPLP [S14I]", 4.05),
    ("PGVHRRYSALAEESAKDWETSPLP [R11A]", 4.31),
    ("PGVHRRYSALREMSAKDWETSPLP [E13M]", 2.96),
    ("PRVHRRYSALREESAKDWETSPLP [G2R]", 4.11),
    ("PGVHRRYSKLREESAKDWETSPLP [A9K]", 4.03),
    ("PGQHRRYSALREESAKDWETSPLP [V3Q]", 4.42),
    ("PGVHRRYSALREESAKLWETSPLP [D17L]", 2.89),
    ("PGRHRRYSALREESAKDWETSPLP [V3R]", 4.33),
    ("FGVHRRYSALREESAKDWETSPLP [P1F]", 3.63),
    ("PGVHRRYSALREESAKDWETSPLV [P24V]", 4.15),
    ("PGVHRRYSALREESNKDWETSPLP [A15N]", 3.92),
    ("PGVHRRYSALREESAKDWITSPLP [E19I]", 3.41),
    ("PGVHRRYSAFREESAKDWETSPLP [L10F]", 4.29),
    ("PGVHRRYSALREESAKDWETSNLP [P22N]", 4.52),
    ("PGVHRRYSALRLESAKDWETSPLP [E12L]", 3.45),
    ("PGVHRRYSALRTESAKDWETSPLP [E12T]", 4.02),
    ("PGVHRRYSALREESAKDWETMPLP [S21M]", 3.67),
    ("PGVHRRYSALREESHKDWETSPLP [A15H]", 4.39),
    ("PGVHRRYSALRYESAKDWETSPLP [E12Y]", 3.48),
    ("PGVHRRYSALREESAKDWETSPLQ [P24Q]", 3.45),
    ("PGVHRRYSALREESAKDWNTSPLP [E19N]", 3.42),
    ("PGVHRRYSALREESAKVWETSPLP [D17V]", 3.86),
    ("PGVHRRYSALEEESAKDWETSPLP [R11E]", 5.29),
    ("PGVYRRYSALREESAKDWETSPLP [H4Y]", 4.81),
    ("PGVHRRYSALREESAKDWETSPAP [L23A]", 4.67),
    ("PGVHRRYSALREESAKDWETTPLP [S21T]", 4.07),
    ("PGVHRRYSALREESAKDWKTSPLP [E19K]", 3.68),
    ("PGVHRRYSALREESPKDWETSPLP [A15P]", 4.12),
    ("PGVHRRYSALRAESAKDWETSPLP [E12A]", 3.94),
    ("PGVHRRYSALREESAKDWPTSPLP [E19P]", 3.59),
    ("PGVHRRYSALREESAKDWETSPKP [L23K]", 5.38),
    ("PGVHRRYSALREESVKDWETSPLP [A15V]", 3.89),
    ("PGVHRRYSALKEESAKDWETSPLP [R11K]", 4.36),
    ("PGVPRRYSALREESAKDWETSPLP [H4P]", 4.33),
    ("PGVHRRYSAPREESAKDWETSPLP [L10P]", 4.97),
    ("PGVHRPYSALREESAKDWETSPLP [R6P]", 3.91),
    ("PGVHRRYCALREESAKDWETSPLP [S8C]", 3.16),
    ("PGVHRRYSALREESAKDWETSDLP [P22D]", 4.63),
    ("PGVHRRYSALREESAKDWEVSPLP [T20V]", 2.73),
]

This collection of values is drawn from the supplement of paper PMC10567573.
